# reported TGI; entries follow
# Test system: T-47D breast
# assay.method.text: NCI tumour cell line growth inhibition, 48 h

{"columns": ["compound", "TGI"],
 "data": [
  ["CC(=O)OC/C=C\\Cn1ncc(=O)[nH]c1=O", "69.9 µM"],
  ["CSc1ccccc1NC1=NCCO1", "> 100 µM"],
  ["C=CC(=O)C#Cc1cnc(OC)nc1OC", "55.8 µM"],
  ["CC(NC1=NCCO1)c1ccsc1 (stereo unspecified)", "> 100 µM"],
  ["CC(/C=C/c1ccccc1)=N\\NC(=S)N/N=C(C)/C=C/c1ccccc1", "> 100 µM"],
  ["c1ccc(C2(c3cc4ccccc4[nH]3)OCCO2)nc1", "> 100 µM"]
]}

Task item: What does the data say about its TGI? Entry: COc1ccc(CCn2ccc(C)n2)c(OC)c1
Reply: > 100 µM

Task item: # input compound: COc1ccc(/C=C/C(=O)OC2CC34CCNC35CC(OC5(OC)C2OC)c2ccc(OC)c(O)c24)cc1O (stereo unspecified) ; wanted: its TGI
Reply: > 100 µM

Task item: Quick one: TGI for CC(=O)OC[C@@]1(C)[C@@H]2[C@@H]3[C@@]4(CO[C@]3(C)C(=O)[C@@]3(OC(C)=O)C[C@H](C)[C@H](OC(C)=O)[C@@H]3[C@H]4OC(C)=O)[C@H](OC(=O)c3ccccc3)C[C@@H]21 ?
Reply: > 100 µM

Task item: May I ask what TGI has been recorded for CC(C)N(CCNc1nc(C(Cl)(Cl)Cl)nc2cc(Cl)ccc12)C(C)C ?
Reply: 5.08 µM

Task item: Given the entry NN/C(=N\S(=O)(=O)c1cc(S(=O)(=O)c2ccccc2)cs1)Nc1ccc(Cl)cc1 , report its measured TGI.
Reply: 55.9 µM

Task item: Returns the measured TGI for the input compound. Input: C=C(CN(C)C)C(=O)c1ccccc1
Reply: 4.93 µM

Task item: Request the reported TGI associated with COc1ccc(/C=C/C(=O)C(=O)/C=C/c2ccc(OC)c(OC)c2)cc1OC
Reply: > 100 µM

Task item: Give the measured TGI of C=C1C(=O)O[C@H]2C(=O)[C@H](C)CCC/C(C)=C/CC[C@@]3(C)O[C@@H]3C[C@@H]12 .
Reply: 4.35 µM

Task item: GET /values?readout=TGI&item= COc1ccc(NCc2cccc3c(=O)c4ccc(Cl)cc4oc23)cc1
Reply: > 100 µM

Task item: I would be grateful if you could share the reported TGI for CC1CCC2C(C)C(OC(=O)CCC(=O)O)OC3OC4(C)CCC1C32OO4 (stereo unspecified) .
Reply: > 100 µM

Task item: Please look up its TGI: COc1cc2c(cc1OC)C1CN3CCCC3C(O)C1c1cc(OC)c(OC)cc1-2 (stereo unspecified)
Reply: > 100 µM

* * *

TGI for assorted compounds
# System: UO-31 renal
# assay.method.text: NCI tumour cell line growth inhibition, 48 h
Just the number in µM, nothing appended.

// below: answered compounds
{"columns": ["compound", "readout.unit", "TGI"],
 "data": [
  ["NNC(=O)N/N=C(/CC1(O)C(=O)Nc2ccc(Br)cc21)c1ccccc1 (stereo not drawn)", "µM", 49.3],
  ["C=C(C)C1Cc2c(cc3c(c2O)c(=O)c2ccccc2n3C)O1 (stereo not drawn)", "µM", 4.01],
  ["Cc1cc(NS(=O)(=O)c2ccc(-c3cnc(C4CC4)o3)cc2)ccc1Cl", "µM", 12.5],
  ["Cn1ccc(S(=O)(=O)N2CCC[C@H](Nc3nccc(-c4c(-c5cccc(O)c5)nc5occn45)n3)C2)n1", "µM", 57.1],
  ["O=C(CCl)N1CCN(c2ccccc2)CC1", "µM", 32]
]}

Task item: I have this compound here, COC1(OC)CCCCCCCCC(OC)(OC)CCCCCCCC1 , and I need its recorded TGI.
Reply: 10.9

Task item: I have this compound here, Nc1nc(N)c2c(Cl)c(CNc3ccc(Cl)c(Cl)c3)ccc2n1 , and I need its recorded TGI.
Reply: 10.3

Task item: Sample CC(=O)NC(CCc1ccc(Cl)c(Cl)c1)c1cccc(O)c(=O)c1 (stereo not drawn) — what was its TGI?
Reply: 2.2

* * *

# System: MOLT-4 leukemia
# assay.method.text: NCI tumour cell line growth inhibition, 48 h; in the data active = GI50 below about 0.43 µM; inactive = the rest
Classes to choose from: label 1 (active), label 0 (inactive)

Consider the following illustrative entries.
{"columns": ["compound", "system.name", "cat"],
 "data": [
  ["CC(C)(Oc1cccc(N2CCC[C@@H](C(=O)N(Cc3ccc(-c4cn[nH]c4)cc3)C3CC3)C2)c1)C(=O)N1CCNCC1", "MOLT-4 leukemia", "label 0"],
  ["CN1CCC(=C(c2ccc(Cl)cc2)c2ccccn2)CC1", "MOLT-4 leukemia", "label 0"],
  ["c1ccc(C2=Nc3ccccc3N3CNN=C23)cc1", "MOLT-4 leukemia", "label 0"],
  ["N=C1C(c2nc3ccccc3c(=O)[nH]2)=C(O)CN1c1cccc(Cl)c1", "MOLT-4 leukemia", "label 0"],
  ["COc1ccc(/C=C/C(=O)C(=O)/C=C/c2ccc(OC)c(OC)c2)cc1OC", "MOLT-4 leukemia", "label 0"]
]}

Task item: Short answer needed: outcome of this test for CC(=O)[CH-]C(=O)c1ccccc1.CC(=O)[CH-]C(=O)c1ccccc1.CC(=O)[CH-]C(=O)c1ccccc1.[Cl-].[Hf+4] ?
Reply: label 0

Task item: Per the records of this test, what outcome belongs to COc1cccc(N2C(=N)/C(=C3\Nc4ccccc4S3)CC2=O)c1 ?
Reply: label 0

Task item: What did this assay record as the result for Cn1cc(Nc2nccc(-c3ccc4c(c3)CN(C3COC3)CC[C@H]4NC(=O)c3cn(C(C)(C)C)nn3)n2)cn1 ?
Reply: label 0

Task item: What outcome does the record of this test show for O=C(O)C1CC[N-]CC1.O=C(O)C1CC[N-]CC1.[NH2-].[NH2-].[Pt+4] ?
Reply: label 0

Task item: Dear colleague, could you share the recorded outcome for Cc1ccc2c(-c3ccnc(Nc4cccc(C(F)(F)F)c4)n3)c(-c3ccccc3)nn2n1 when you have a moment?
Reply: label 0

Task item: Per the assay record, what outcome was assigned to [CH3][Ge]([CH3])([CH2]CC#N)[S]c1ccccc1 ?
Reply: label 0

Task item: Could you kindly confirm the outcome this assay logged for CC[C@]1(O)CC2CN(CCc3c([nH]c4ccccc34)C(C(=O)OC)(c3cc4c(cc3OC)N(C=O)[C@H]3[C@@](O)(C(=O)OC)[C@H](OC(C)=O)[C@]5(CC)[C@@H]6C[C@@H]6CN6CC[C@]43[C@@H]65)C2)C1 (some centres undefined) ?
Reply: label 1

Task item: Check the results log: what was the call for COC(=O)COc1ccccc1/C=C1/N=C(c2ccccc2)N(c2c(C)n(C)n(-c3ccccc3)c2=O)C1=O ?
Reply: label 0

Task item: Could you check what this test reported for N#C/C(=C\c1ccc(O)c(O)c1)C(=O)NCc1cccc(C(F)(F)F)c1 ?
Reply: label 0

* * *

# Tested on: SF-268 CNS
# assay.method.text: NCI tumour cell line growth inhibition, 48 h
property.measured: log10 of TGI (log10 of the value in µM)
All values: log10 TGI [µM].

{"columns": ["compound", "property.measured", "assay.value"],
 "data": [
  ["Fc1ccc(C2CC(c3cccc(Nc4ccncc4)c3)=NN2c2ccccc2)cc1 (configuration not stated)", "log10 of TGI", 0.53],
  ["Cc1cc(NS(=O)(=O)c2ccc(-c3cnc(C4CC4)o3)cc2)ccc1Cl", "log10 of TGI", 1.30]
]}

Task item: Fill blank: measured log10 of TGI of the compound O=C(CCl)N1CCN(c2ccccc2)CC1 is ____.
Reply: 1.52

Task item: Could you share which log10 of TGI value was measured for Oc1ccc(I)c2cccnc12 ?
Reply: 1.86

Task item: For N#CC(Cl)CS(=O)(=O)c1ccccc1 (configuration not stated) , what is its reported log10 of TGI?
Reply: 1.39

* * *

# Test system: SK-MEL-5 melanoma
# assay.method.text: NCI tumour cell line growth inhibition, 48 h
Please use the following TGI ranges when assigning a class: low band: < 6 µM; middle band: ≥ 6 µM and < 30 µM; high band: ≥ 30 µM

Reference set (4 entries):
{"columns": ["compound", "cat"],
 "data": [
  ["O=C1CC[C@@H](S(=O)(=O)c2ccccc2)[C@H](/C=C/c2ccccc2)O1", "high band"],
  ["CN(C)C/C=C/C(=O)Nc1ccc(C(=O)Nc2cccc(Nc3ncc(Cl)c(-c4c[nH]c5ccccc45)n3)c2)cc1", "high band"],
  ["CN1C(=O)C(O)CC1c1ccccc1F (centres undefined)", "high band"],
  ["O=C1CCC2(c3ccccc3)OCC([C@@H](O)c3ccccc3)N12 (some centres undefined)", "high band"]
]}

Task item: Could you tell me which band [pH]1p2[pH]p3p1p3[pH]2.c1cc[c]([Ge]([c]2ccccc2)[c]2ccccc2)cc1.c1cc[c]([Ge]([c]2ccccc2)[c]2ccccc2)cc1.c1cc[c]([Ge]([c]2ccccc2)[c]2ccccc2)cc1 belongs to?
Reply: high band

Task item: # bin label for C=C(C)C1Cc2c(cc3c(c2O)c(=O)c2ccccc2n3C)O1 (centres undefined)
Reply: middle band

Task item: Looking at COc1ccc(/C=N/NS(=O)(=O)c2ccc(/C=C3\NC(=O)NC3=O)cc2)cc1 , which class would you pick?
Reply: high band

Task item: // return the class label for NC(N)=N/N=C/c1c(-c2ccc([N+](=O)[O-])cc2)nc2sc(Cl)cn12
Reply: low band

Task item: Categorize the following entry: O=c1c2ccccc2nc(-c2ccccc2)n1/N=C/c1ccccc1[N+](=O)[O-]
Reply: high band
